# Protocol Text: qHTS assay to identify small molecule antagonists of the constitutive androstane receptor (CAR) signaling pathway - cell viability counter screen (AID 1224837); also: nearly all actives have a fitted effect of over 45% in size
# Test Parameters: HepG2-CYP2B6-hCAR viability, CellTiter-Fluor, 23 h, co-treated with 50 nM CITCO; series mostly up to 92.4 µM
Inconclusive results are not listed. The source made the active and inactive calls. Calls follow the shape of the dose curve; as a rule, active = well fitted cell-killing curve with a large enough effect in the repeat runs; inconclusive = weak or mixed curves, or effect the other way; inactive = flat fitted curve, though single readings scatter.
Outcome (select one): active, inactive

Consider the worked cases shown below.
{"columns": ["Molecule", "Class"],
 "data": [
  ["Nc1ccc([N+](=O)[O-])cc1Cl", "inactive"],
  ["N#C/C=C/c1ccccc1", "inactive"],
  ["Cl/C=C\\CCl", "inactive"]
]}

Incoming: Just curious, what result did NC(=O)c1ccc(N)nc1 get here?
Outgoing: inactive

Incoming: c1ccc2c(c1)OCC(C1=NCCN1)O2 (stereo unspecified) , same question.
Outgoing: active

Incoming: Oc1c(Cl)c(Cl)cc(Cl)c1Cl , same question.
Outgoing: inactive

Incoming: Nc1ccc(Sc2ccc(N)cc2)cc1 , same question.
Outgoing: inactive

Incoming: CC(=O)/C=C/c1ccc2c(c1)OCO2 , same question.
Outgoing: inactive

Incoming: N#Cc1ccccc1Cl , same question.
Outgoing: inactive

Incoming: c1ccc(OCC2CO2)cc1 (stereo unspecified) , same question.
Outgoing: inactive

Incoming: Cc1cccc(OP(=O)(Oc2cccc(C)c2)Oc2cccc(C)c2)c1 , same question.
Outgoing: inactive

Incoming: CC(C)(C)OO , same question.
Outgoing: inactive

Incoming: CC(=[OH+])/C=C(/C)[O-].CC(=[OH+])/C=C(\C)[O-].CC(=[OH+])/C=C(\C)[O-].[Al] , same question.
Outgoing: inactive

Incoming: C=CCOC(N)=O , same question.
Outgoing: inactive

Incoming: CCc1nn(C)c(C(=O)NCc2ccc(C(C)(C)C)cc2)c1Cl , same question.
Outgoing: inactive

Incoming: O=C(CCCN1CCC2(CC1)C(=O)NCN2c1ccccc1)c1ccc(F)cc1 , same question.
Outgoing: active
